# Read-out: Vascular cell adhesion molecule 1 (VCAM1), VCAM1 (gene 7412)
# assay: BSK_CASM3C_VCAM1: BioMAP Diversity Plus: CASM3C Assay for Vascular cell adhesion molecule 1 (VCAM1) Biomarker Activity (AID 2283055);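 also: VCAM-1 protein level quantified by ELISA on the cells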
# conditionContext: primary human coronary artery smooth muscle cells; actives raise or lower the signal
The source made the active and inactive calls. The calls were made as follows: active = hit-call score of the fitted dose curve at least 0.9, where 1 is the maximum; inactive = score below 0.9.
I would appreciate it if you answered using one of these outcomes: active, inactive

Outcome logged for CCCCCCCCCCCC(=O)N(C)CC(=O)O in this assay: inactive

Test call for this compound, please: CCc1cccc(C)c1N(C(=O)CS(=O)(=O)O)C(C)COC (stereo not drawn) inactive

Hi, sorry to bother you, what did the test record for C=CC(=O)OCCCCCCCC(C)C ? active

Outcome logged for Oc1ccc(/C=C/c2cc(O)cc(O)c2)cc1 in this assay: inactive

Hi team, can someone confirm the assay call for CC(C)c1cccc(C(C)C)c1N ? inactive

Hi, sorry to bother you, what did the test record for CCCCCCCO ? inactive

Status in this test for Clc1cc(Cl)c(Cl)c(Cl)c1Cl ? inactive

What classification did C=CC(=O)NC(C)(C)C end up with in this test? inactive

Fill in: this test's call for CCCCCCCCCCCC(C)=O is ___ inactive

Tell me the recorded outcome of this test for C[N+](C)(C)CCCNS(=O)(=O)C(F)(F)C(F)(F)C(F)(F)C(F)(F)C(F)(F)C(F)(F)C(F)(F)C(F)(F)F . inactive

Check the results log: what was the call for Nc1ccc(C(=O)O)cc1 ? inactive

What classification did CCOC(=O)C1=NOC(c2ccccc2)(c2ccccc2)C1 end up with in this test? active

Outcome? CCCCC1C(=O)N(c2ccccc2)N(c2ccccc2)C1=O inactive

* * *

# assay: BSK_BE3C_SRB: Viability Assessment in the BioMAP Diversity Plus: BE3C Assay (AID 2283028);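 also: measured 24 h after chemical dosing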
# conditionContext: primary human bronchial epithelial cells
Active and inactive are the calls of the source. Rule for the calls: active = hit-call score of the fitted dose curve at least 0.9, where 1 is the maximum; inactive = score below 0.9.
# output must be one of class 1 for active, class 0 for inactive

Hey, what did the test say about CC(C)[N+](C)(CCOC(=O)C1c2ccccc2Oc2ccccc21)C(C)C ? class 0

For CC(Cl)COP(=O)(OCC(C)Cl)OCC(C)Cl (centres undefined) , which call appears in the assay record? class 0

How did this test come out for COC(OC)(C(=O)c1ccccc1)c1ccccc1 ? class 0

Just curious, what result did CC=C(C)C(C)=O get here? class 0

Given Nc1cccc(N)n1 , state the outcome it received in this test. class 0

Kindly provide the recorded test outcome for the following molecule: CC/C=C\C/C=C\C/C=C\CCCCCCCC(=O)OC class 1

// param item: C=CC(=O)NCOCCCC ; yields the recorded call class 0

Call for entry C=CC(=O)OCCCCCCOC(=O)C=C : class 0

What outcome does the record of this test show for Oc1c(Cl)cc(Cl)c(Cl)c1Cl ? class 0

Check the results log: what was the call for O=C(Oc1ccccc1)c1ccccc1C(=O)Oc1ccccc1 ? class 0

Assay result, entry Nc1nc(N)nc(-c2ccccc2)n1 — outcome? class 0

Assay outcome for CCc1cccc(C)c1N(C(=O)CS(=O)(=O)O)C(C)COC (centres undefined) : what was it? class 0

Recorded test outcome, item CCN1CN(CC)CN(CC)C1 class 0

Give the logged outcome of this assay for the following molecule: CC1(C)CC(O)CC(C)(C)N1[O] class 0

* * *

# tgt: Heat shock factor protein 1 (Homo sapiens)
# assay: ATG_HSE_CIS: Attagene CIS-FACTORIAL HepG2 Assay for human Heat Shock Transcription Factor 1 (HSE) (AID 2282953)
# conditionContext: HepG2 HSE cis-reporter, Attagene RNA transcription; actives raise or lower the signal
The source made the active and inactive calls. The calls were made as follows: active = hit-call score of the fitted dose curve at least 0.9, where 1 is the maximum; inactive = score below 0.9.
# valid calls are active, inactive; nothing else

Dear colleague, could you share the recorded outcome for CC(=O)CC(=O)Nc1ccccc1C when you have a moment? inactive

Tell me the recorded outcome of this test for CCC(=O)C1CC(C(C)C)CC=C1C (stereo not drawn) . inactive

// outcome(item) with item = C=C(C)OC(C)=O inactive

Recorded test outcome, item CC1CC(=O)CC(C)(C)C1 (stereo not drawn) inactive

# outcome recorded in this test, key = COC(OC)(C(=O)c1ccccc1)c1ccccc1 inactive

In this assay, the call recorded for CCCCC(=O)O was what? inactive

Please state the recorded outcome for this molecule: COc1ccc(C(=O)/C(Br)=C\C(=O)O)cc1 active

// outcome(item) with item = CCC(C)c1ccccc1 (stereo not drawn) inactive

* * *

# tgt: X-box-binding protein 1 (Homo sapiens)
# assay: ATG_Xbp1_CIS: Attagene CIS-FACTORIAL HepG2 Assay for human X-box Binding Protein 1 (XBP1) (AID 2282972)
# conditionContext: HepG2 XBP1 cis-element reporter, Attagene multiplex; actives raise or lower the signal
Activity calls are given as the source filed them. How the source made its calls: active means hit-call score of the fitted dose curve at least 0.9, where 1 is the maximum; inactive means score below 0.9.
Please answer using one outcome listed in true for active, false for inactive

Please indicate how the test categorized C=C(C)C1CC=C(C)C(OC(C)=O)C1 (stereo not drawn) . false

Test call, this compound: CC(CC=O)CC(C)(C)C (stereo not drawn) false

Per the assay record, what outcome was assigned to O=C(O)C(F)(F)C(F)(F)C(F)(F)C(F)(F)C(=O)O ? false

Give the logged outcome of this assay for the following compound: CC(C)(O)Cc1ccccc1 false

I would be grateful if you could indicate the recorded call for Cc1c(C(=O)c2c[nH]n(C)c2=O)ccc(S(C)(=O)=O)c1C1=NOCC1 . false

Any idea what this test logged for COC(Cc1ccccc1)OC ? false

What did this assay record as the result for C/C=C/C=C/CCCCCCCO ? false

Returns: the outcome recorded for C=CC(=O)OCC(C)OCC(C)OCC(C)OC(=O)C=C (stereo not drawn) in this assay. false

In this assay, the call recorded for O=S(=O)(O)c1ccc(N=Nc2c(O)ccc3ccccc23)cc1 was what? false

How did this test come out for CCC(C)c1ccccc1 (stereo not drawn) ? false

Per the records of this test, what outcome belongs to N=C1C=CC(=C(c2ccc(N)cc2)c2ccc(N)cc2)C=C1 ? true

Hi, do you know how C=CC(=O)O[C@H]1C[C@@H]2CC[C@@]1(C)C2(C)C came out in this test? false

Identify the outcome logged in this assay for the compound shown: CCCCNS(=O)(=O)c1ccccc1 false

* * *

# Read-out: Urokinase-type plasminogen activator receptor (uPAR), PLAUR (gene 5329)
# assay: BSK_CASM3C_uPAR: BioMAP Diversity Plus: CASM3C Assay for Urokinase-type plasminogen activator receptor (uPAR) Biomarker Activity (AID 2283054);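 also: cell-surface uPAR protein level quantified by ELISA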
# conditionContext: primary human coronary artery smooth muscle cells; actives raise or lower the signal
Active and inactive are the calls of the source. The calls were made as follows: active = hit-call score of the fitted dose curve at least 0.9, where 1 is the maximum; inactive = score below 0.9.
Mark one answer only. Choices: active, inactive

Per the records of this test, what outcome belongs to CC(C)CCCCCOC(=O)CS ? inactive

Look up the recorded call for CC1(C)CC(O)CC(C)(C)N1[O] in this test. inactive

Record lookup: outcome of this test for CCc1cccc(C)c1N(C(=O)CS(=O)(=O)O)C(C)COC (stereo unspecified) ? inactive

Test call, this compound: CC(C)[N+](C)(CCOC(=O)C1c2ccccc2Oc2ccccc21)C(C)C inactive

Could you please tell me the result logged for CC=C(C)C=CC=C(C)C in this assay? inactive

I would be grateful if you could indicate the recorded call for CCOC(=O)C1=NOC(c2ccccc2)(c2ccccc2)C1 . inactive

Recorded test call requested for C=CC(=O)NC(C)(C)C inactive

Could you check what this test reported for CCOC(=O)/C=C\C(=O)OCC ? inactive

What did this assay record as the result for CCCCCCCCCCCC(C)=O ? active

Tell me the recorded outcome of this test for CCNc1nc(NC(C)(C)C)nc(OC)n1 . inactive

Entry Cc1c(O)cccc1O : call = ? inactive

Lab log entry: Nc1ccc(C(=O)O)cc1 — outcome as called in the assay? inactive

Would you mind telling me which call this test gave C=CC(=O)OCC(C)OCC(C)OCC(C)OC(=O)C=C (stereo unspecified) ? active

Given Fc1ccc(Br)cc1 , state the outcome it received in this test. inactive

Identify the outcome logged in this assay for the compound shown: CC(c1cc(C(C)(C)C)cc(C(C)(C)C)c1O)c1cc(C(C)(C)C)cc(C(C)(C)C)c1O inactive

Given CCCC(C)C(=O)OCC (stereo unspecified) , state the outcome it received in this test. inactive

What did this assay record as the result for C[N+](C)(C)CCCNS(=O)(=O)C(F)(F)C(F)(F)C(F)(F)C(F)(F)C(F)(F)C(F)(F)C(F)(F)C(F)(F)F ? inactive

Returns: the outcome recorded for CCCCC1C(=O)N(c2ccccc2)N(c2ccccc2)C1=O in this assay. inactive

Record lookup: outcome of this test for Oc1ccc(/C=C/c2cc(O)cc(O)c2)cc1 ? inactive

Hey, what did the test say about CCC1(C)C(=O)N(Cl)C(=O)N1Cl (stereo unspecified) ? inactive

Lab log entry: COC(OC)(C(=O)c1ccccc1)c1ccccc1 — outcome as called in the assay? inactive

Hello, I am checking results. What call was entered for C1CNCCN1 ? inactive

What did the test return for CC=C(C)C(C)=O ? inactive

Can you look up the reported call for CCOC(=O)C1=NN(c2ccc(Cl)cc2Cl)C(C)(C(=O)OCC)C1 (stereo unspecified) for me? inactive

Please indicate how the test categorized CC(Cl)COP(=O)(OCC(C)Cl)OCC(C)Cl (stereo unspecified) . inactive

Check the results log: what was the call for CC(C)c1cccc(C(C)C)c1N ? inactive

Identify the outcome logged in this assay for the compound shown: O=C(Oc1ccccc1)c1ccccc1C(=O)Oc1ccccc1 inactive

Hello, I am checking results. What call was entered for C=CC(=O)NCOCCCC ? inactive

Test call for this compound, please: O=C(Cl)c1c(Cl)c(Cl)c(C(=O)Cl)c(Cl)c1Cl inactive

Please let me know the test result on file for O=C1CCCCCCCCCCCN1 . inactive

Could you kindly confirm the outcome this assay logged for CCN1CN(CC)CN(CC)C1 ? inactive

Please state the recorded outcome for this compound: CCCCCC1=CCCC1=O inactive

Record request — test call for O=C(O)C(F)(F)C(F)(F)C(F)(F)C(F)(F)C(=O)O inactive

What outcome does the record of this test show for CC1=CC=C(C(C)C)CC1 ? inactive

Could you check what this test reported for CCCCCCCCC(CO)CCCCCC (stereo unspecified) ? inactive

Which outcome was assigned to Nc1nc(N)nc(-c2ccccc2)n1 in this test? inactive
